Assay: qHTS Assay for Identification of Small Molecule Agonists for Hypoxia Response Element Signaling Pathway (AID 914); further: % of control where 0% means no effect
Conditions: ME-180 (cervical carcinoma) HRE-bla reporter, beta-lactamase ratio, CoCl2, 17 h; hits give high values
Results filed as inconclusive are left out.
Quick list: activation per entry.
assayEndpoint: activation (%)

[[record]]
compoundsmiles = "CN1CCN(c2ncncc2-c2ccccc2Cl)CC1"
unitname = "%"
recordedresult = 4.87

[[record]]
compoundsmiles = "COc1cccc(-c2cc(NCc3ccc(OC)cc3OC)ncn2)c1"
unitname = "%"
recordedresult = 1.95

[[record]]
compoundsmiles = "c1ccc(CNc2ncncc2-c2ccoc2)cc1"
unitname = "%"
recordedresult = 1.1

[[record]]
compoundsmiles = "COCC(=O)N1CCC2(CCN(Cc3ccc(C#N)cc3)CC2)CC1"
unitname = "%"
recordedresult = 4.64

[[record]]
compoundsmiles = "N#Cc1ccc(CN2CC[C@@]3(CCCN(C(=O)c4cc(C(F)(F)F)cc(C(F)(F)F)c4)C3)C2)cc1"
unitname = "%"
recordedresult = 13.6

[[record]]
compoundsmiles = "COc1ccccc1-c1cc(NCc2cnc(C)cn2)ncn1"
unitname = "%"
recordedresult = 25.8

[[record]]
compoundsmiles = "Cn1c(=O)c(-c2cccc(F)c2)nc2cncnc21"
unitname = "%"
recordedresult = -8.58

[[record]]
compoundsmiles = "COc1cccc(-c2ccc3ncnc(NCCN4CCOCC4)c3c2)c1"
unitname = "%"
recordedresult = -14.8

[[record]]
compoundsmiles = "COc1ccc(CNc2cc(-c3ccccc3C)ncn2)c(OC)c1"
unitname = "%"
recordedresult = 2.85

[[record]]
compoundsmiles = "O=S(=O)(c1ccccc1)N1CCC2(CCN(Cc3ccccc3)CC2)CC1"
unitname = "%"
recordedresult = 14.1

[[record]]
compoundsmiles = "COc1c(O)cc2c(c1O)[C@@H]1O[C@@H](CO)[C@@H](O)[C@@H](O)[C@@H]1OC2=O"
unitname = "%"
recordedresult = 14.6

[[record]]
compoundsmiles = "COc1ccc(NC(=O)N2CC[C@@]3(CCCN(C(=O)c4c(C)noc4C)C3)C2)cc1"
unitname = "%"
recordedresult = -0.633

[[record]]
compoundsmiles = "Cn1cccc1C(=O)N1CCC2(CCN(Cc3ccncc3)CC2)CC1"
unitname = "%"
recordedresult = -5.1

[[record]]
compoundsmiles = "O=C(c1ccco1)N1CCC2(CCCN(Cc3ccccc3)C2)CC1"
unitname = "%"
recordedresult = 3.78

[[record]]
compoundsmiles = "Cc1ccccc1-c1nccc(-n2ccnc2)n1"
unitname = "%"
recordedresult = -1.43

[[record]]
compoundsmiles = "c1cncc(CNc2cc(-c3ccoc3)ncn2)c1"
unitname = "%"
recordedresult = 0.531

[[record]]
compoundsmiles = "CN1CCN(c2ccnc(-c3cccc(NS(C)(=O)=O)c3)n2)CC1"
unitname = "%"
recordedresult = 0.356

[[record]]
compoundsmiles = "CN(C)c1ccc(-c2ccc3ncnc(N(C)Cc4ccco4)c3c2)cc1"
unitname = "%"
recordedresult = -3.37

[[record]]
compoundsmiles = "N#Cc1cccc(NC(=O)N2CCCC3(CCN(C(=O)c4csnn4)CC3)C2)c1"
unitname = "%"
recordedresult = -5.53

[[record]]
compoundsmiles = "Cc1ccccc1-c1ccc2ncnc(NCc3cccs3)c2c1"
unitname = "%"
recordedresult = 2.83

[[record]]
compoundsmiles = "Cc1noc(C)c1C(=O)N1CCC2(CC1)CCN(C(c1ccccc1)c1ccccc1)CC2"
unitname = "%"
recordedresult = -2.4

[[record]]
compoundsmiles = "N#Cc1ccc(CN2CCCC3(CCN(C(=O)c4cnccn4)CC3)C2)cc1"
unitname = "%"
recordedresult = -10.7

[[record]]
compoundsmiles = "COc1ccccc1-c1cncnc1N(C)Cc1ccco1"
unitname = "%"
recordedresult = -12.2

